# target.of.assay: EGR1 DB_WT (Zif268 DNA-binding domain) (human, UniProt P18146 331-430)
# test.summary: ITC
recorded.endpoint: Kd (nM)
Provide only the numeric value, understood in nM.

[ask] Answer with the recorded Kd of ZRE duplex (15-mer) (dsDNA) DNA 1: ATAGCGTGGGCGTTT DNA 2: AAACGCCCACGCTAT only.
[reply] 345
